Where do the numbers come from? From patent US6274715A.

Attribute: MIC
# Tested on: STREPTOCOCCUS BOVIS A-5169
# testSummary: In vitro antibacterial activity, MIC, BHI agar dilution
# Format: cell-based
# assayConditions: S. bovis A-5169, unit assumed
property: MIC (µg/mL)

CC[C@H]1OC(=O)[C@H](C)C(=O)[C@H](C)[C@@H](O[C@@H]2O[C@H](C)C[C@H](N(C)C)[C@H]2O)[C@](C)(OC)C[C@@H](C)C2=NC[C@H](C)N3C(=O)O[C@@]1(C)[C@H]3[C@H]2C [Example 8] ... 0.1
CCC1OC(=O)C(C)C(=O)C(C)C(OC2OC(C)CC(N(C)C)C2O)C(C)(OC)CC(C)C2=NCC(C)(CN(C)C)N3C(=O)OC1(C)C3C2C (stereo not drawn) [Example 136] ... 0.02
CC[C@H]1OC(=O)[C@H](C)C(=O)[C@H](C)[C@@H](O[C@@H]2O[C@H](C)C[C@H](N(C)C)[C@H]2O)[C@](C)(OC)C[C@@H](C)C2=NCC(COC(=O)c3ccc4ccccc4n3)N3C(=O)O[C@@]1(C)[C@H]3[C@H]2C (stereo partly drawn) [Example 142] ... 0.01
CCC1OC(=O)C(C)C(=O)C(C)C(OC2OC(C)CC(N(C)C)C2O)C(C)(OC)CC(C)C2=NCC(C)(CN(C)Cc3ccccc3)N3C(=O)OC1(C)C3C2C (stereo not drawn) [Example 134] ... 0.01
CC[C@H]1OC(=O)[C@H](C)C(=O)[C@H](C)[C@@H](O[C@@H]2O[C@H](C)C[C@H](N(C)C)[C@H]2O)[C@](C)(OC)C[C@@H](C)C2=N[C@@H](Cc3ccccc3)CN3C(=O)O[C@@]1(C)[C@H]3[C@H]2C [Example 4] ... 0.02
CC[C@H]1OC(=O)[C@H](C)C(=O)[C@H](C)[C@@H](O[C@@H]2O[C@H](C)C[C@H](N(C)C)[C@H]2O)[C@](C)(OC)C[C@@H](C)C2=N[C@@H](C)[C@H](C)N3C(=O)O[C@@]1(C)[C@H]3[C@H]2C [Example 11] ... 0.01
CC[C@H]1OC(=O)[C@H](C)C(=O)[C@H](C)[C@@H](O[C@@H]2O[C@H](C)C[C@H](N(C)C)[C@H]2O)[C@](C)(OC)C[C@@H](C)C2=NC3CN(CCOC)CC3N3C(=O)O[C@@]1(C)[C@H]3[C@H]2C (stereo partly drawn) [Example 126] ... 0.02
CC[C@H]1OC(=O)[C@H](C)C(=O)[C@H](C)[C@@H](O[C@@H]2O[C@H](C)C[C@H](N(C)C)[C@H]2O)[C@](C)(OC)C[C@@H](C)C2=NCC(COC(=O)c3cc4ccccc4n3C)N3C(=O)O[C@@]1(C)[C@H]3[C@H]2C (stereo partly drawn) [Example 143] ... 0.01
